Values compiled from ChEMBL document CHEMBL2331441.

ASSAYED TARGET: cGMP-inhibited 3',5'-cyclic phosphodiesterase 3A (Homo sapiens, UniProt Q14432)
Sequence (Q14432 whole entry): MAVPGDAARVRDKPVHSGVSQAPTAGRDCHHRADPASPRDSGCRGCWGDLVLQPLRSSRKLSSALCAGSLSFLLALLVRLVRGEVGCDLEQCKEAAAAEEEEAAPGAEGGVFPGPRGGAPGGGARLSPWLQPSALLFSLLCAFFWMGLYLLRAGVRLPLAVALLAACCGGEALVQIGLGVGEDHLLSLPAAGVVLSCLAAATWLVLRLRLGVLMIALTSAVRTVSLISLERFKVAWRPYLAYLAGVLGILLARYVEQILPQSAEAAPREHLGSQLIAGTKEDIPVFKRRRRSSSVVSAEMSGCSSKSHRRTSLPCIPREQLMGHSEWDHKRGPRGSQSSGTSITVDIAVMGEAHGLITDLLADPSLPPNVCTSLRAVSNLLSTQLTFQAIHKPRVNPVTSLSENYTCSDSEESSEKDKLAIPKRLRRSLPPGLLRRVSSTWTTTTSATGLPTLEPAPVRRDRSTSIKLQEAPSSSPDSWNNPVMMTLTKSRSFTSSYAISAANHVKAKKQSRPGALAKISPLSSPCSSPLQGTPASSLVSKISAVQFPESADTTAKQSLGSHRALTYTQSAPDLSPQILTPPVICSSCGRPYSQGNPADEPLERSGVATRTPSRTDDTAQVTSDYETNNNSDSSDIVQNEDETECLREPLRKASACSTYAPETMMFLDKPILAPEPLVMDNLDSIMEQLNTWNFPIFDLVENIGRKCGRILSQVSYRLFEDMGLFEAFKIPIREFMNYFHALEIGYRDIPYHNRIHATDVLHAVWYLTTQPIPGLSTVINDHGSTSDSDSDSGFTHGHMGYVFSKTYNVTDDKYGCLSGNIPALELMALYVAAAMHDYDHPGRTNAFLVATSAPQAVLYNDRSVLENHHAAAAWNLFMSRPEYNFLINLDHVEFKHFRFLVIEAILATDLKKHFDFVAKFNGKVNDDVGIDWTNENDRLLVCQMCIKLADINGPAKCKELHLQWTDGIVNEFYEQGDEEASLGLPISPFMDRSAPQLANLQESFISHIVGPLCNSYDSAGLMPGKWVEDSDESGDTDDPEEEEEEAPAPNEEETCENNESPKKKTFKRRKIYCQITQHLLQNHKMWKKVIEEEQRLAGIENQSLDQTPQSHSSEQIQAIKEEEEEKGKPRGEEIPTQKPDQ
MEASURED PARAMETER: IC50 (nM)

(I) COc1ccc(C2=NN(CCCCOc3ccc(C4=NNC(=O)C4(C)C)c(F)c3)C(=O)CC2C)c2cc(C(F)(F)F)nn12 (centres undefined)
(II) CCc1cc2c(C3=NN(CCCCOc4ccc(C5=NNC(=O)CC5C)cc4)C(=O)C3(C)C)ccc(OC)n2n1 (centres undefined)
(III) COc1ccc(C2=NN(CCCCOc3ccc(C4=NNC(=O)C4(C)C)c(F)c3F)C(=O)C2(C)C)n2cc(C(F)(F)F)nc12
(IV) COc1ccc(C2=NNC(=O)CC2C)c2cc(C(F)(F)F)nn12 (racemic)
## Input Give the ascending ranking of the items by reported IC50. # output: labels, in the requested order
## Output II, III, I, IV
(II: 1.7 nM, III: 40 nM, I: 58 nM, IV: 2380 nM)
